experiment: yeast display, Sf9 membrane polyspecificity reagent, FACS + sequencing; frameworks hold sequencing errors
experimental.readout: polyreactivity (PSR sort gate)

Take a look at these entries with their results.
QVQLVESGGGLVQAGGSLRLSCAASGLIYWYAMGWYRQAPGKERELVAAISSNGGSTYYADSVKGRFTISRDNAKNTVYLQMNSLKPEDTAVYYCAAEDYYIYREPYDYWGQGTQVTVSS :: low polyreactivity
QVQLVESGGGVVQAGGSLRLSCAASGRIFHRYTMGWYRQARGKERELVAVISGLGGSTYYADSVKGRFTISRDNAKNTVYLQMNSLKPEDTAVYYCNRVGKYWSSDDSWGQGTQVTVSS :: high polyreactivity
QVQLVESGGGLVQAGGSLRLSCAASGSIFSSYAMGWYRQAPGKERELVASISWRSGSTYYADSVKGRFTISRDNAKNTVYLQMNSLKPEDTAVYYCATAYYRYYKYRFYYWGQGTQVTVSS :: high polyreactivity
QVQLVESGGGLVQAGGSLRLSCAASGSTLTEYAMGWYRQAPGKEREFVAAISRSAGSTYYADSVKGRFTISRDNAKNTVYLQMNSLKPDDTAVYYCAVAVRVGFDYFSGQADIYYYWGQGTQVTVSS :: low polyreactivity
QVQLEESGGGLVQAGGSLRLSCAASGFTSYYAMGWYRQAPGKERELVAAIRYSTVSTYYADAVKGRFTISRDNAKNTVYLQMNIMKPEDTAVYYCAAQRRPYLPGHYYYWGQGTQVTVSS :: high polyreactivity

Now for another entry.
Quick one: polyreactivity (PSR sort gate) for QVQLVESGGGLVQAGGSLRLSCAASGRISVANAMGWYIQAPGKERELVARISEGVGSTYYADSVKGRFTISRDTAKNTVYLQMNSLKPEDTAVYYCAAYQDYVYSESLFSVSARMYYWGQGTQVTVSS ? low polyreactivity

---

assay: yeast display, Sf9 membrane polyspecificity reagent, FACS + sequencing; frameworks hold sequencing errors
experimental.readout: polyreactivity (PSR sort gate)

QVQLVESGGGLVQAGGSLRLSCPASGSTLAWYTMGWYRQAPGKEREFVAVITGSGGSTFYADSVKGRFTISRDNAKNTVYLQMNSLKPEDTAVYYCAADYLYYVTQHRRFHLDYWGQGTQVTVSS :: low polyreactivity
QVQLVESGGGLVQAGGSLRLSCAASGRTFRNYAMGWYRQAPGKERELVAGITYSGGSTFYADSVKGRFTISRDNAKNTVYLQMNSLKPEDAAVYYCAAVYVPYYWLGRSRGLDYWGQGTQVTVSS :: high polyreactivity
QVQRVESGGGLVQAGGSLRLSCAASGRIFVAYVMGWYRQAPGKERELVAAITRSGGRTYYADSVKGRFTISRDNAKNTVYLQMNSLKPEDTAVYYCATDSGWSTYDYWGQGTQVSVSS :: high polyreactivity
QVQLVESGGGLVQAGGSLRLSCAASGGIFPYYAMGWYRQAPGKERELVAGISQNDGRTYYADSVKGRFTISRDNAKNTVYLQMNSLIPDDTAVYYCATEYWYPRYGYWGQGTQVTVSS :: low polyreactivity

# next sequence below
Given the entry QVQLVESGGGLVQAGGSLRLTCADSGFIFYRYAMVWYRQAPGKERELVAAISTRGGSTFYADSVKGRFTISRDNAKNTVYLQMNSLKPEDTAVYYCATGPLRAYDYWGQGTQVTVSS , report its measured polyreactivity (PSR sort gate). high polyreactivity
